Sourced from ChEMBL document CHEMBL4130552

System: HeLa
Test: Antiproliferative activity against human HeLa cells after 72 hrs by MTT assay
Format: functional, cell-based
Hi there, I'd appreciate the recorded log10(IC50) for every entry that follows.
Scale: decimal log of IC50, IC50 in µM.

Exercise: Which value of log10(IC50) has been reported for `CC(C)NC(=N)c1ccc2[nH]c(-c3ccc(OCc4cn(-c5ccc(I)cc5)nn4)cc3)nc2c1` in the records?
Key: -0.29

Exercise: Which value of log10(IC50) has been reported for `CC(C)NC(=N)c1ccc2[nH]c(-c3ccc(OCc4cn(Cc5ccccc5)nn4)cc3)nc2c1` in the records?
Key: 0.94

Exercise: Which value of log10(IC50) has been reported for `Ic1ccc(-n2cc(COc3ccc(-c4nc5cc(C6=NCCN6)ccc5[nH]4)cc3)nn2)cc1` in the records?
Key: -0.38

Exercise: Which value of log10(IC50) has been reported for `Cl.Clc1ccc(Cn2cc(COc3ccc(-c4nc5cc(C6=NCCN6)ccc5[nH]4)cc3)nn2)cc1` in the records?
Key: 0.70

Exercise: Which value of log10(IC50) has been reported for `CC(C)NC(=N)c1ccc2[nH]c(CCc3cn(-c4ccc(Cl)cc4)nn3)nc2c1` in the records?
Key: 0.49

Exercise: Which value of log10(IC50) has been reported for `CC(C)NC(=N)c1ccc2[nH]c(-c3ccc(OCc4cn(-c5ccc(C(F)(F)F)cc5)nn4)cc3)nc2c1` in the records?
Key: 1.14

###

Hi there, I'd appreciate the recorded pIC50 for every entry that follows.
System: SW-620
Assay: Antiproliferative activity against human SW620 cells after 72 hrs by MTT assay
Type: functional, cell-based
Conditions: SW-620, 72 h
Schema: pIC50 number; meaning minus log10 of the concentration expressed in molar units.

Exercise: Which value of pIC50 has been reported for `CC(C)NC(=N)c1ccc2[nH]c(-c3ccc(OCc4cn(Cc5ccccc5)nn4)cc3)nc2c1` in the records?
Key: 4.23

Exercise: Which value of pIC50 has been reported for `c1ccc(-n2cc(COc3ccc(-c4nc5cc(C6=NCCN6)ccc5[nH]4)cc3)nn2)cc1` in the records?
Key: 4.53

Exercise: Which value of pIC50 has been reported for `Clc1ccc(-n2cc(COc3ccc(-c4nc5ccc(Cl)cc5[nH]4)cc3)nn2)cc1` in the records?
Key: 5.37

Exercise: Which value of pIC50 has been reported for `N=C(N)c1ccc2[nH]c(-c3ccc(OCc4cn(Cc5ccccc5)nn4)cc3)nc2c1` in the records?
Key: 4.51

Exercise: Which value of pIC50 has been reported for `Ic1ccc(-n2cc(COc3ccc(-c4nc5cc(C6=NCCN6)ccc5[nH]4)cc3)nn2)cc1` in the records?
Key: 6.43

Exercise: Which value of pIC50 has been reported for `Clc1ccc(-n2cc(COc3ccc(-c4nc5cc(C6=NCCN6)ccc5[nH]4)cc3)nn2)cc1` in the records?
Key: 5.44

Exercise: Which value of pIC50 has been reported for `Fc1ccc(-n2cc(COc3ccc(-c4nc5cc(C6=NCCN6)ccc5[nH]4)cc3)nn2)cc1` in the records?
Key: 5.64

Exercise: Which value of pIC50 has been reported for `CC(C)NC(=N)c1ccc2[nH]c(-c3ccc(OCc4cn(-c5ccc(C(F)(F)F)cc5)nn4)cc3)nc2c1` in the records?
Key: 4.30

Exercise: Which value of pIC50 has been reported for `N=C(N)c1ccc2[nH]c(-c3ccc(OCc4cn(-c5ccccc5)nn4)cc3)nc2c1` in the records?
Key: 4.50

Exercise: Which value of pIC50 has been reported for `CC(C)NC(=N)c1ccc2[nH]c(-c3ccc(OCc4cn(-c5ccccc5)nn4)cc3)nc2c1` in the records?
Key: 4.21

Exercise: Which value of pIC50 has been reported for `FC(F)(F)c1ccc(-n2cc(COc3ccc(-c4nc5cc(C6=NCCN6)ccc5[nH]4)cc3)nn2)cc1` in the records?
Key: 5.20

Exercise: Which value of pIC50 has been reported for `CC(C)NC(=N)c1ccc2[nH]c(-c3ccc(OCc4cn(-c5ccc(Cl)cc5)nn4)cc3)nc2c1.Cl` in the records?
Key: 4.31

Exercise: Which value of pIC50 has been reported for `CC(C)NC(=N)c1ccc2[nH]c(CCc3cn(-c4ccc(Cl)cc4)nn3)nc2c1` in the records?
Key: 4.25

Exercise: Which value of pIC50 has been reported for `Clc1ccc(-n2cc(-c3nc4cc(C5=NCCN5)ccc4[nH]3)nn2)cc1` in the records?
Key: 5.78

Exercise: Which value of pIC50 has been reported for `Cl.c1ccc(Cn2cc(COc3ccc(-c4nc5cc(C6=NCCN6)ccc5[nH]4)cc3)nn2)cc1` in the records?
Key: 4.55

Exercise: Which value of pIC50 has been reported for `Cl.Clc1ccc(Cn2cc(COc3ccc(-c4nc5cc(C6=NCCN6)ccc5[nH]4)cc3)nn2)cc1` in the records?
Key: 7.30

Exercise: Which value of pIC50 has been reported for `N=C(N)c1ccc2[nH]c(-c3ccc(OCc4cn(-c5ccc(Cl)cc5)nn4)cc3)nc2c1` in the records?
Key: 5.12

Exercise: Which value of pIC50 has been reported for `CC(C)NC(=N)c1ccc2[nH]c(-c3cn(-c4ccc(Cl)cc4)nn3)nc2c1` in the records?
Key: 4.49

Exercise: Which value of pIC50 has been reported for `CC(C)NC(=N)c1ccc2[nH]c(-c3ccc(OCc4cn(-c5ccc(I)cc5)nn4)cc3)nc2c1` in the records?
Key: 6.16

Exercise: Which value of pIC50 has been reported for `CC(C)NC(=N)c1ccc2[nH]c(-c3ccc(OCc4cn(-c5ccc(F)cc5)nn4)cc3)nc2c1` in the records?
Key: 4.42

Exercise: Which value of pIC50 has been reported for `N=C(N)c1ccc2[nH]c(-c3ccc(OCc4cn(-c5ccc(I)cc5)nn4)cc3)nc2c1` in the records?
Key: 6.02

Exercise: Which value of pIC50 has been reported for `N=C(N)c1ccc2[nH]c(-c3ccc(OCc4cn(-c5ccc(C(F)(F)F)cc5)nn4)cc3)nc2c1` in the records?
Key: 6.44

Exercise: Which value of pIC50 has been reported for `Clc1ccc(-n2cc(COc3ccc(-c4nc5ccccc5[nH]4)cc3)nn2)cc1` in the records?
Key: 4.00

Exercise: Which value of pIC50 has been reported for `CC(C)NC(=N)c1ccc2[nH]c(-c3ccc(OCc4cn(Cc5ccc(Cl)cc5)nn4)cc3)nc2c1` in the records?
Key: 4.44

Exercise: Which value of pIC50 has been reported for `N=C(N)c1ccc2[nH]c(-c3ccc(OCc4cn(-c5ccc(F)cc5)nn4)cc3)nc2c1` in the records?
Key: 4.42

###

Tested on: A549
Experiment: Antiproliferative activity against human A549 cells after 72 hrs by MTT assay
Type: functional, cell-based
Details: A549, 72 h
Hi there, I'd appreciate the recorded pIC50 for every entry that follows.
Schema: pIC50 number; meaning minus log10 of the concentration expressed in molar units.

Exercise: Which value of pIC50 has been reported for `CC(C)NC(=N)c1ccc2[nH]c(-c3ccc(OCc4cn(Cc5ccc(Cl)cc5)nn4)cc3)nc2c1` in the records?
Key: 5.30

Exercise: Which value of pIC50 has been reported for `c1ccc(-n2cc(COc3ccc(-c4nc5cc(C6=NCCN6)ccc5[nH]4)cc3)nn2)cc1` in the records?
Key: 4.30

Exercise: Which value of pIC50 has been reported for `CC(C)NC(=N)c1ccc2[nH]c(-c3ccc(OCc4cn(-c5ccc(Cl)cc5)nn4)cc3)nc2c1.Cl` in the records?
Key: 7.30

Exercise: Which value of pIC50 has been reported for `O=c1[nH]cc(F)c(=O)[nH]1` in the records?
Key: 5.55

###

System: A549
Test: Antiproliferative activity against human A549 cells after 72 hrs by MTT assay
Type: functional, cell-based
Conditions: A549, 72 h
pIC50: −log10 of the molar value.
Range-based classes on measured pIC50: low: < 5; intermediate: ≥ 5 and < 7; high: ≥ 7

Exercise: Just checking, what class would you give `CC(C)NC(=N)c1ccc2[nH]c(-c3ccc(OCc4cn(Cc5ccccc5)nn4)cc3)nc2c1` here?
Key: intermediate

Exercise: Just checking, what class would you give `Clc1ccc(-n2cc(COc3ccc(-c4nc5cc(C6=NCCN6)ccc5[nH]4)cc3)nn2)cc1` here?
Key: high

Exercise: Just checking, what class would you give `N=C(N)c1ccc2[nH]c(-c3ccc(OCc4cn(-c5ccc(I)cc5)nn4)cc3)nc2c1` here?
Key: intermediate

Exercise: Just checking, what class would you give `CC(C)NC(=N)c1ccc2[nH]c(CCc3cn(-c4ccc(Cl)cc4)nn3)nc2c1` here?
Key: low

###

System: WI-38
Experiment: Antiproliferative activity against human WI38 cells after 72 hrs by MTT assay
Assay type: cell-based
Details: WI-38, 72 h
Experimental Endpoint: IC50 (µM)
// return numeric value only (unit: µM, not printed)

Exercise: Which value of IC50 has been reported for `Clc1ccc(-n2cc(COc3ccc(-c4nc5ccc(Cl)cc5[nH]4)cc3)nn2)cc1` in the records?
Key: 1.52

Exercise: Which value of IC50 has been reported for `N=C(N)c1ccc2[nH]c(-c3ccc(OCc4cn(Cc5ccccc5)nn4)cc3)nc2c1` in the records?
Key: 0.89

Exercise: Which value of IC50 has been reported for `N=C(N)c1ccc2[nH]c(-c3ccc(OCc4cn(-c5ccc(Cl)cc5)nn4)cc3)nc2c1` in the records?
Key: 5.03

Exercise: Which value of IC50 has been reported for `FC(F)(F)c1ccc(-n2cc(COc3ccc(-c4nc5cc(C6=NCCN6)ccc5[nH]4)cc3)nn2)cc1` in the records?
Key: 0.69

Exercise: Which value of IC50 has been reported for `CC(C)NC(=N)c1ccc2[nH]c(-c3ccc(OCc4cn(Cc5ccc(Cl)cc5)nn4)cc3)nc2c1` in the records?
Key: 0.7

Exercise: Which value of IC50 has been reported for `Ic1ccc(-n2cc(COc3ccc(-c4nc5cc(C6=NCCN6)ccc5[nH]4)cc3)nn2)cc1` in the records?
Key: 0.22

Exercise: Which value of IC50 has been reported for `N=C(N)c1ccc2[nH]c(-c3ccc(OCc4cn(-c5ccc(F)cc5)nn4)cc3)nc2c1` in the records?
Key: 0.7

Exercise: Which value of IC50 has been reported for `N=C(N)c1ccc2[nH]c(-c3ccc(OCc4cn(-c5ccc(I)cc5)nn4)cc3)nc2c1` in the records?
Key: 0.62

Exercise: Which value of IC50 has been reported for `N=C(N)c1ccc2[nH]c(-c3ccc(OCc4cn(-c5ccc(C(F)(F)F)cc5)nn4)cc3)nc2c1` in the records?
Key: 0.52

Exercise: Which value of IC50 has been reported for `CC(C)NC(=N)c1ccc2[nH]c(-c3ccc(OCc4cn(-c5ccc(F)cc5)nn4)cc3)nc2c1` in the records?
Key: 0.66

Exercise: Which value of IC50 has been reported for `CC(C)NC(=N)c1ccc2[nH]c(-c3ccc(OCc4cn(-c5ccc(Cl)cc5)nn4)cc3)nc2c1.Cl` in the records?
Key: 8.04

Exercise: Which value of IC50 has been reported for `CC(C)NC(=N)c1ccc2[nH]c(CCc3cn(-c4ccc(Cl)cc4)nn3)nc2c1` in the records?
Key: 3.71

Exercise: Which value of IC50 has been reported for `CC(C)NC(=N)c1ccc2[nH]c(-c3ccc(OCc4cn(-c5ccc(I)cc5)nn4)cc3)nc2c1` in the records?
Key: 0.2

Exercise: Which value of IC50 has been reported for `CC(C)NC(=N)c1ccc2[nH]c(-c3ccc(OCc4cn(-c5ccc(C(F)(F)F)cc5)nn4)cc3)nc2c1` in the records?
Key: 0.32

Exercise: Which value of IC50 has been reported for `c1ccc(-n2cc(COc3ccc(-c4nc5cc(C6=NCCN6)ccc5[nH]4)cc3)nn2)cc1` in the records?
Key: 0.1

Exercise: Which value of IC50 has been reported for `Cl.Clc1ccc(Cn2cc(COc3ccc(-c4nc5cc(C6=NCCN6)ccc5[nH]4)cc3)nn2)cc1` in the records?
Key: 5.77

Exercise: Which value of IC50 has been reported for `Clc1ccc(-n2cc(COc3ccc(-c4nc5cc(C6=NCCN6)ccc5[nH]4)cc3)nn2)cc1` in the records?
Key: 2.24

Exercise: Which value of IC50 has been reported for `CC(C)NC(=N)c1ccc2[nH]c(-c3ccc(OCc4cn(-c5ccccc5)nn4)cc3)nc2c1` in the records?
Key: 0.99

Exercise: Which value of IC50 has been reported for `N=C(N)c1ccc2[nH]c(-c3ccc(OCc4cn(-c5ccccc5)nn4)cc3)nc2c1` in the records?
Key: 8.08

Exercise: Which value of IC50 has been reported for `CC(C)NC(=N)c1ccc2[nH]c(-c3ccc(OCc4cn(Cc5ccccc5)nn4)cc3)nc2c1` in the records?
Key: 65.4
